Origin of values: PubChem BioAssay AID540352

Assay: qHTS for Inhibitos of Bacillus subtilis Sfp phosphopantetheinyl transferase (PPTase): Chemistry Optimization Followup in B. Subtilis 168
Details: B. subtilis 168 growth, BacTiter-Glo luminescence, 5 h; series mostly up to 114 µM
Results filed as inconclusive are left out. Active and inactive are the calls of the source. Calls come from the whole dose curve; as a rule, active = well fitted inhibition curve with a large enough effect; inconclusive = small, poorly fitted or top-dose-only effect; inactive = no such curve, though single readings can be large or run the other way.
measure_name: Potency

Examples from the recorded data:
{"chem_smiles": "Cc1ccnc(NC(=S)N2CCN(c3ccc(Cl)c(Cl)c3)CC2)c1", "Potency": "11.8 µM (active)"}
{"chem_smiles": "FC(F)(F)c1cccc(N2CCN(C(=S)Nc3cc(C(F)(F)F)ccn3)CC2)c1", "Potency": "13.2 µM (active)"}
{"chem_smiles": "Cc1cc(C)nc(NC(=S)N2CCN(c3ccc(Cl)c(Cl)c3Cl)CC2)c1", "Potency": "9.37 µM (active)"}
{"chem_smiles": "Cc1cc(C)nc(NC(=C(C#N)C#N)N2CCN(c3cccc(C(F)(F)F)c3)CC2)c1", "Potency": "37.3 µM (active)"}
{"chem_smiles": "S=C(Nc1cc(Cl)ccn1)N1CCN(c2ccc3ccccc3n2)CC1", "Potency": "33.2 µM (active)"}
{"chem_smiles": "COc1ccnc(NC(=S)N2CCN(c3cccc(Cl)c3Cl)CC2)c1", "Potency": "9.37 µM (active)"}

Lookup: Endpoint output: Potency of Cc1ccnc(NC(=S)N2CCN(c3ccc(Cl)cc3Cl)CC2)c1 . Value?
Found: 16.7 µM (active)

Lookup: Same question for Cc1cc(C)nc(NC(=S)N2CCN(c3ccc(Cl)cc3C(F)(F)F)CC2)c1 please.
Found: 9.37 µM (active)

Lookup: Same question for Cc1cc(C)nc(/N=C(\NC#N)N2CCN(c3cccc(C(F)(F)F)c3)CC2)c1 please.
Found: 46.9 µM (active)

----------
Experiment: qHTS for Inhibitos of Bacillus subtilis Sfp phosphopantetheinyl transferase (PPTase): Chemistry Optimization Followup in B. Subtilis 168
Settings: B. subtilis 168 growth, BacTiter-Glo luminescence, 5 h; series mostly up to 114 µM
Results filed as inconclusive are left out. Activity calls are given as the source filed them. Calls come from the whole dose curve; as a rule, active = well fitted inhibition curve with a large enough effect; inconclusive = small, poorly fitted or top-dose-only effect; inactive = no such curve, though single readings can be large or run the other way.
Respond only with the outcome that fits, drawn from active, inactive

Solved entries:
{"chem_smiles": "Cc1cc(C)nc(NC(=S)N2CCN(c3cncs3)CC2)c1", "assigned_category": "active"}
{"chem_smiles": "Cc1cc(C)nc(NC(=S)N2CCN(Cc3c(F)cccc3Cl)CC2)c1", "assigned_category": "inactive"}
{"chem_smiles": "Cc1ccnc(NC(=S)N2CCC(Nc3cccc(C(F)(F)F)c3)CC2)c1", "assigned_category": "active"}
{"chem_smiles": "COC(=O)c1ccnc(NC(=S)N2CCN(c3cccc(C(F)(F)F)c3)CC2)c1", "assigned_category": "active"}

Lookup: Identify the outcome logged in this assay for the compound shown: Cc1ccnc(NC(=S)N2CCN(c3cc(C(F)(F)F)cc(C(F)(F)F)c3)CC2)c1
Found: active
